The origin of these recorded values is patent US20170081400A1.

Overview of reported TL1A Binding Level (Late) across a group of binders:
# test system: T1, human TL1A extracellular domain with N-terminal HIS and FLAG tag (human, UniProt O95150 72-251)
# T1 construct: the whole entry is named
# T1 sequence: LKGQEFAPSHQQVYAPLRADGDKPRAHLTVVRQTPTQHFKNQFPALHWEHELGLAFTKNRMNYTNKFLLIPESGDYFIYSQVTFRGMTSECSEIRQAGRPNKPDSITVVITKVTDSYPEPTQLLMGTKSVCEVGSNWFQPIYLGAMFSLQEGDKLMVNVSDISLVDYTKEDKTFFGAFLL
# assay name: SPR Run 5, Ab from supernatant captured on Protein A, TL1A 5 ug/mL, timepoint 220
Report the value in RU with no unit label.

# count of solved cases: 3
binder	result number
320-426 (antibody, human IgG1, name in Kabat numbering, V domains shown, human IgG1, lambda) VH: QVQLVQSGAEVKKPGASVKVSCKASGYTFHSYDINWVRQAPGQGLEWMGWLNPNSGNTGYAQKFQGRVTMTADRSTSTAYMELSSLRSEDTAVYYCAREVPETAAFEYWGQGTLVTVSS VL: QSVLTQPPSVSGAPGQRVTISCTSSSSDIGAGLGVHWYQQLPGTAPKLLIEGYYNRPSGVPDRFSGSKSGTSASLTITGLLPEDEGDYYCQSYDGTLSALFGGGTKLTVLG	9
320-401 (antibody, human IgG1, name in Kabat numbering, V domains shown, human IgG1, lambda) VH: QVQLVQSGAEVKKPGASVKVSCKASGHTFTSYDINWVRQAPGQGLEWMGWLNPNSGNTGYAQKFQGRVTMTADRSTSTAYMELSSLRSEDTAVYYCAREVPETAAFEYWGQGTLVTVSS VL: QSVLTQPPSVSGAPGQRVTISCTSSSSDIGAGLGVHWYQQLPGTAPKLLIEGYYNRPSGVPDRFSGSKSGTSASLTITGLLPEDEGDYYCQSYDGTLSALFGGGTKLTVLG	10
320-399 (antibody, human IgG1, name in Kabat numbering, V domains shown, human IgG1, lambda) VH: QVQLVQSGAEVKKPGASVKVSCKASGQTFTSYDINWVRQAPGQGLEWMGWLNPNSGNTGYAQKFQGRVTMTADRSTSTAYMELSSLRSEDTAVYYCAREVPETAAFEYWGQGTLVTVSS VL: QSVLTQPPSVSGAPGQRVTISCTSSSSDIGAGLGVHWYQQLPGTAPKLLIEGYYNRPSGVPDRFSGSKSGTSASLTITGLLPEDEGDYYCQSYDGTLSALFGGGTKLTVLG	10

// TL1A Binding Level (Late) lookup, binder = 320-378 (antibody, human IgG1, name in Kabat numbering, V domains shown, human IgG1, lambda) VH: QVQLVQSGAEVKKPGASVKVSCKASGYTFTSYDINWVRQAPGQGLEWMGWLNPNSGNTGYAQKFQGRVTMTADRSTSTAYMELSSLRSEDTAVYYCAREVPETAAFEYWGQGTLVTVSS VL: QSVLTQPPSVSGAPGQRVTISCTSSSSDIGAGLGVHWYQQLPGTAPKLLIEGYYNRPSGVPDRFSGSKSGTSASLTITGLLPEDEGDYYCQSYDGTLSWLFGGGTKLTVLG , result: -1

Lab note: measured TL1A Binding Level (Late) of 320-404 (antibody, human IgG1, name in Kabat numbering, V domains shown, human IgG1, lambda) VH: QVQLVQSGAEVKKPGASVKVSCKASGYAFTSYDINWVRQAPGQGLEWMGWLNPNSGNTGYAQKFQGRVTMTADRSTSTAYMELSSLRSEDTAVYYCAREVPETAAFEYWGQGTLVTVSS VL: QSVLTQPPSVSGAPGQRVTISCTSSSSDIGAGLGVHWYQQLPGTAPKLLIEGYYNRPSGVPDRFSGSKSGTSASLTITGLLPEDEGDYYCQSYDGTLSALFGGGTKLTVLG was 10
